tgt: T1, ATF2 bZIP (human, UniProt P15336 352-410)
T1 sequence: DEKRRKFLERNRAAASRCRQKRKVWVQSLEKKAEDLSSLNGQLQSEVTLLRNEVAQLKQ
method: competition (FP); antagonist peptide ATF2W 29 nM-12 uM, 625 nM ATF2; FP: chloride salt (buffer and salt concentration truncated in material), 5 mM MgCl2, 10 mM TCEP, pH 7.4; 10 nM FAM-DNA; 1 h incubation, temperature not in material
experimental.setup: chain copies: 2; label: 5' 6-FAM; blunt; self-complementary, 2 copies
observation.type: pIC50
Please keep in mind that pIC50 is minus log10 of the molar concentration; only the number is needed.

The reported value for FAM-CRE (dsDNA) DNA 1: GCGCTGACGTCAGCGC DNA 2: GCGCTGACGTCAGCGC in terms of pIC50 is 6.18
